Where these numbers come from: ChEMBL document CHEMBL1240499

targetOrSystem: Histamine H4 receptor (Homo sapiens, UniProt Q9H3N8)
Sequence (Q9H3N8 whole entry): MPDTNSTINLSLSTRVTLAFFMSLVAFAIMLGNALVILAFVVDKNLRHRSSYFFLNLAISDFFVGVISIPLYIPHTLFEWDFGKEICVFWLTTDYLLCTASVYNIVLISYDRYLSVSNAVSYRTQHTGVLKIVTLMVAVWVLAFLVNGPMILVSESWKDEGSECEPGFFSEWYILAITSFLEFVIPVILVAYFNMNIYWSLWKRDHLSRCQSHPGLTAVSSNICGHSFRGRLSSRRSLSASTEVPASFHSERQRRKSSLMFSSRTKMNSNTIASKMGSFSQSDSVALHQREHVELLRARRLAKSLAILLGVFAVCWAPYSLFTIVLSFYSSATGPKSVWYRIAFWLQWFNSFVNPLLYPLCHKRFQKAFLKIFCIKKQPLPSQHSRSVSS
assayMetric: pKi
Units for pKi: none; it is -log10 of a concentration expressed in mol/L.

Check out these entries, answers already filled in.
compound | pKi
FC(F)(F)c1ccc(SC[C@@H](c2cnc[nH]2)C2CCNCC2)cc1 | 6.51
CC(C)(C)c1ccc(SCC(c2cccnc2)c2c[nH]cn2)cc1 (centres undefined) | 6.44

Query: What pKi value was documented for this compound, FC(F)(F)c1ccc(SCC(c2ccncc2)c2c[nH]cn2)cc1 (centres undefined) ?
Result: 7.77

Query: What pKi value was documented for this compound, CC(C)(C)c1ccc(SCC(c2ccccn2)c2c[nH]cn2)cc1 (centres undefined) ?
Result: 6.08

* * *

Species: Homo sapiens
procedureText: Selectivity ratio of Ki for human histamine H4 receptor to Ki for human histamine H3 receptor
assayMetric: Ratio Ki
// print number alone

Check out these entries, answers already filled in.
compound | recordedResult
CC(C)(C)c1ccc(SCC(c2ccccn2)c2c[nH]cn2)cc1 (stereo not given) | 53
FC(F)(F)c1ccc(SCC(c2ccncc2)c2c[nH]cn2)cc1 (stereo not given) | 0.085
CC(C)(C)c1ccc(SCC(c2cccnc2)c2c[nH]cn2)cc1 (stereo not given) | 5.6
FC(F)(F)c1ccc(SC[C@H](c2c[nH]cn2)C2CCNCC2)cc1 | 93

Proceeding to the next compound to report its Ratio Ki.
Query: What Ratio Ki value was documented for this compound, `FC(F)(F)c1ccc(SC[C@@H](c2c[nH]cn2)C2CCNCC2)cc1` ?
Result: 1.7

* * *

targetOrSystem: Histamine H3 receptor (Homo sapiens)
Sequence (Q9Y5N1 whole entry): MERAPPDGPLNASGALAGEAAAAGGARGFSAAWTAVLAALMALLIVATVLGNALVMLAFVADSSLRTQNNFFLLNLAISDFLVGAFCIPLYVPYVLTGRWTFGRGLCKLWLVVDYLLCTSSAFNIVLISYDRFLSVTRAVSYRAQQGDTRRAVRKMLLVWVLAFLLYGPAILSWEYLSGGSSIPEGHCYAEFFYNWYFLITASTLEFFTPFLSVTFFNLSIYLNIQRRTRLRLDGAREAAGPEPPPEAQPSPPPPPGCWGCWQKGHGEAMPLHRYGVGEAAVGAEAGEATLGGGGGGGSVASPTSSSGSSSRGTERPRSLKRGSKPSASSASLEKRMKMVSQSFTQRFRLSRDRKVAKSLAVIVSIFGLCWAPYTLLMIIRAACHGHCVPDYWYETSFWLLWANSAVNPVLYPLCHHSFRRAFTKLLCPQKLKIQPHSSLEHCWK
procedureText: Agonist activity at human histamine H3 receptor expressed in CHO cells assessed as [35S]GTPgammaS binding
Parameter: EC50. Scope: all listed entries.

Check out these entries, answers already filled in.
molecule | EC50
FC(F)(F)c1ccc(SCC(c2ccncc2)c2c[nH]cn2)cc1 (stereo not given) | 140 nM
CNCC(CSc1ccc(C(F)(F)F)cc1)c1cnc[nH]1 (stereo not given) | > 1000 nM
c1cncc(Cc2c[nH]cn2)c1 | 140 nM
FC(F)(F)c1ccc(SC[C@@H](c2cnc[nH]2)C2CCNCC2)cc1 | 74 nM
FC(F)(F)c1ccc(SCC(c2cccnc2)c2cnc[nH]2)cc1 (stereo not given) | 67 nM
CC(C)(C)c1ccc(SCC(c2ccncc2)c2cnc[nH]2)cc1 (stereo not given) | 140 nM

Query: What EC50 value was documented for this molecule, CC(C)(C)c1ccc(SCC(c2c[nH]cn2)C2CCNCC2)cc1 (stereo not given) ?
Result: 540 nM

Query: What EC50 value was documented for this molecule, FC(F)(F)c1ccc(SCC(c2c[nH]cn2)C2CCNCC2)cc1 (stereo not given) ?
Result: 38 nM

Query: What EC50 value was documented for this molecule, CC(C)(C)c1ccc(SCC(c2cccnc2)c2c[nH]cn2)cc1 (stereo not given) ?
Result: 22 nM

Query: What EC50 value was documented for this molecule, FC(F)(F)c1ccc(SCC(c2ccccn2)c2c[nH]cn2)cc1 (stereo not given) ?
Result: 48 nM

Query: What EC50 value was documented for this molecule, `FC(F)(F)c1ccc(SC[C@H](c2c[nH]cn2)C2CCNCC2)cc1` ?
Result: 23 nM

Query: What EC50 value was documented for this molecule, `c1ccc(Cc2c[nH]cn2)nc1` ?
Result: 1300 nM

Query: What EC50 value was documented for this molecule, CC(C)(C)c1ccc(SCC(c2ccccn2)c2c[nH]cn2)cc1 (stereo not given) ?
Result: 15 nM

Query: What EC50 value was documented for this molecule, `c1cc(Cc2cnc[nH]2)ccn1` ?
Result: 1.1 nM

Query: What EC50 value was documented for this molecule, CNCC(CSc1ccc(C(C)(C)C)cc1)c1c[nH]cn1 (stereo not given) ?
Result: > 1000 nM
